Tested on: human hepatocellular carcinoma BEL-7402
test_method_notes: Growth inhibition of BEL-7402 cells (MTT or SRB assay)
Type: cell-based
stated_conditions: 10^−5 M, read-out: Growth inhibition effect to BEL-7402 cell strain
property_label: inhibition at 10 µM (%)
Write the number in % without appending the unit.

CN(C)CCn1c(=O)c2ccc3sc4ccccc4c4ccc(c1=O)c2c34 [compound 2]    90.7
CN(C)CCN1C(=O)c2cccc3c2c(cc2nc(-c4cccc([N+](=O)[O-])c4)sc23)C1=O [compound 7]    95.8
CN(C)CCCn1c(=O)c2ccc3sc4ccccc4c4ccc(c1=O)c2c34 [compound 4]    95
CN(C)CCN1C(=O)c2cccc3c2c(cc2nnsc23)C1=O [compound 11]    90.9

Next item in the queue.
INPUT: What measured inhibition at 10 µM goes with CCCCn1c(=O)c2ccc3sc4ccccc4c4ccc(c1=O)c2c34 [compound 1] ?
OUTPUT: 76.9

###

Each item that follows carries a reported melting point.

CCCCN1C(=O)c2cccc3c2c(cc2c4ccccc4sc32)C1=O    170 to 172 °C

INPUT: Reported melting point, compound `CC(C)=CCCn1c(=O)c2ccc3sc4ccccc4c4ccc(c1=O)c2c34` : ____
OUTPUT: 202 to 203 °C

INPUT: Can you look up the measured melting point of `CC(C)=CCN1C(=O)c2cccc3c2c(cc2c4ccccc4sc32)C1=O` for me?
OUTPUT: 207 to 208 °C

INPUT: // lookup melting point for `O=C(ON1C(=O)c2cccc3cccc(c23)C1=S)c1ccc(Cl)cc1`
OUTPUT: 182 to 183 °C

INPUT: What does the record list as melting point for `Cc1ccc(-c2nc3cc4c5c(cccc5c3s2)C(=O)N(CCN(C)C)C4=O)cc1` ?
OUTPUT: 202 to 203 °C

###

Test system: human gastric adenocarcinoma SGC-7901
test_method_notes: Growth inhibition of SGC-7901 cells (MTT or SRB assay)
Format: cell-based
stated_conditions: 10^−8 M, read-out: Growth inhibition effect to SGC-7901 cell strain
property_label: inhibition at 0.01 µM

Some solved entries appear below for comparison.
CCCCn1c(=O)c2ccc3sc4ccccc4c4ccc(c1=O)c2c34    9.8%
CN(C)CCN1C(=O)c2cccc3c2c(cc2nnsc23)C1=O    1.1%
CN(C)CCN1C(=O)c2cccc3c2c(cc2nc(-c4cccc([N+](=O)[O-])c4)sc23)C1=O    3.4%
CN(C)CCn1c(=O)c2ccc3sc4ccccc4c4ccc(c1=O)c2c34    0.8%

Next:
INPUT: Quick one: inhibition at 0.01 µM for `CN(C)CCCn1c(=O)c2ccc3sc4ccccc4c4ccc(c1=O)c2c34` ?
OUTPUT: 13.8%

###

Below: a set of entries, each annotated with reported melting point.

// worked examples, melting point included
CCCCN1C(=O)c2cccc3c2c(cc2nnsc23)C1=O    177 to 179 °C
O=C(ON1C(=O)c2cccc3cccc(c23)C1=S)c1ccc(Cl)cc1F    208 to 210 °C
CN(C)CCn1c(=O)c2ccc3sc4ccccc4c4ccc(c1=O)c2c34    212 to 213 °C

INPUT: Using the record for `COc1ccc(C(=O)ON2C(=O)c3cccc4cccc(c34)C2=S)cc1OC` , report its melting point.
OUTPUT: 221 to 223 °C

INPUT: Which melting point is listed for `Cc1cc(C)cc(C(=O)ON2C(=O)c3cccc4cccc(c34)C2=S)c1` ?
OUTPUT: 216 to 218 °C

INPUT: State the recorded melting point for this entry: `CN(C)CCN1C(=O)c2cccc3c2c(cc2nc(-c4cccc([N+](=O)[O-])c4)sc23)C1=O`
OUTPUT: 229 to 230 °C

INPUT: Quick check: melting point of `CN(C)CCN1C(=O)c2cccc3c2c(cc2nc(-c4ccccc4)sc23)C1=O` ?
OUTPUT: 220 to 221 °C

INPUT: Name the recorded melting point for C=C(C)C(O)CN1C(=O)c2cccc3c2c(cc2c4ccccc4sc32)C1=O (stereo not drawn) .
OUTPUT: 95 to 97 °C

INPUT: // returns reported melting point for input `O=C(ON1C(=O)c2cccc3cccc(c23)C1=S)c1ccco1`
OUTPUT: 209 to 211 °C

INPUT: GET /values?readout=melting point&item= C=C(C)C(CCn1c(=O)c2ccc3sc4ccccc4c4ccc(c1=O)c2c34)OO (stereo not drawn)
OUTPUT: 210 to 211 °C

INPUT: Name the recorded melting point for `CN(C)CCN1C(=O)c2cccc3c2c(cc2nc(-c4ccccc4Cl)sc23)C1=O` .
OUTPUT: 235 to 237 °C

INPUT: Fill in: melting point of `COc1ccc(-c2nc3cc4c5c(cccc5c3s2)C(=O)N(CCN(C)C)C4=O)cc1` is ___
OUTPUT: 216 to 217 °C

INPUT: Given `CN(C)CCN1C(=O)c2cccc3c2c(cc2nnsc23)C1=O` , state its recorded melting point.
OUTPUT: 178 to 179 °C

INPUT: If you can, please state the reported melting point value of `CN(C)CCCN1C(=O)c2cccc3c2c(cc2c4ccccc4sc32)C1=O` .
OUTPUT: 168 to 170 °C

INPUT: I have this compound here, `CN(C)CCCn1c(=O)c2ccc3sc4ccccc4c4ccc(c1=O)c2c34` , and I need its recorded melting point.
OUTPUT: 202 to 203 °C

INPUT: What melting point value was documented for this compound, `CN(C)CCN1C(=O)c2cccc3c2c(cc2nc(-c4ccccc4O)sc23)C1=O` ?
OUTPUT: 240 to 241 °C

INPUT: Quick one: melting point of `O=C(ON1C(=O)c2cccc3cccc(c23)C1=S)c1ccccc1` ?
OUTPUT: 189 to 190 °C

INPUT: # get_value(readout='melting point', item= C=C(C)C(CN1C(=O)c2cccc3c2c(cc2c4ccccc4sc32)C1=O)OO (stereo not drawn) )
OUTPUT: 174 to 175 °C

###

Test system: human hepatocellular carcinoma BEL-7402
test_method_notes: Growth inhibition of BEL-7402 cells (MTT or SRB assay)
Assay type: cell-based
stated_conditions: 10^−8 M, read-out: Growth inhibition effect to BEL-7402 cell strain
Values of inhibition at 0.01 µM greater than or equal to 10% map to Condition met; values below map to Condition not met.

Solved cases below.
CN(C)CCN1C(=O)c2cccc3c2c(cc2nc(-c4cccc([N+](=O)[O-])c4)sc23)C1=O    Condition met
CCCCn1c(=O)c2ccc3sc4ccccc4c4ccc(c1=O)c2c34    Condition not met
CN(C)CCCn1c(=O)c2ccc3sc4ccccc4c4ccc(c1=O)c2c34    Condition met
CN(C)CCN1C(=O)c2cccc3c2c(cc2nnsc23)C1=O    Condition met

Moving on to another molecule below.
INPUT: Identify whether the reported inhibition at 0.01 µM of the following molecule is 10% or greater: `CN(C)CCn1c(=O)c2ccc3sc4ccccc4c4ccc(c1=O)c2c34`
OUTPUT: Condition met

###

Tested on: mice leukemia cell P388
test_method_notes: Growth inhibition of P388 cells, MTT assay
Assay type: cell-based
stated_conditions: Mus musculus, 10^−6 M, read-out: Growth inhibition effect to P388 cell strain
property_label: inhibition at 1 µM
Could you write the number and then its unit?

CCCCN1C(=O)c2cccc3c2c(cc2nnsc23)C1=O    17.1%
CN(C)CCN1C(=O)c2cccc3c2c(cc2nc(-c4cccc([N+](=O)[O-])c4)sc23)C1=O    47.9%
CCCCn1c(=O)c2ccc3sc4ccccc4c4ccc(c1=O)c2c34    6.4%

INPUT: What value of inhibition at 1 µM has been reported for the following compound? `CN(C)CCCN1C(=O)c2cccc3c2c(cc2nnsc23)C1=O`
OUTPUT: 19.8%

INPUT: Returns the measured inhibition at 1 µM for the input compound. Input: `O=C1c2cccc3c2c(cc2c4ccccc4sc32)C(=O)N1CCN1CCNCC1`
OUTPUT: 23.9%

###

System: human lung adenocarcinoma cell A-549
test_method_notes: Growth inhibition of A-549 cells, SRB protein staining assay
Assay type: cell-based
stated_conditions: A549, 10^−6 M, read-out: Growth inhibition effect to A-549 cell strain
Entries and their inhibition at 1 µM
Expressed in %, but write only the number.

These solved cases illustrate the format of a correct answer.
O=C1c2cccc3c2c(cc2nnsc23)C(=O)N1CCN1CCNCC1 [compound 14]    87.3
CN(C)CCCN1C(=O)c2cccc3c2c(cc2c4ccccc4sc32)C1=O [compound 18]    81.1
O=C1c2cccc3c2c(cc2c4ccccc4sc32)C(=O)N1CCN1CCNCC1 [compound 17]    46.8
CN(C)CCN1C(=O)c2cccc3c2c(cc2c4ccccc4sc32)C1=O [compound 16]    85.2
CN(C)CCN1C(=O)c2cccc3c2c(cc2nc(-c4ccccc4Cl)sc23)C1=O [compound 10]    94.5
CCCCN1C(=O)c2cccc3c2c(cc2nnsc23)C1=O [compound 12]    0

INPUT: Given the molecule CCCCn1c(=O)c2ccc3sc4ccccc4c4ccc(c1=O)c2c34 [compound 1] , what is its reported inhibition at 1 µM?
OUTPUT: 0
